molecular target: TbrCatL (Trypanosoma brucei rhodesiense, UniProt Q95PM0); construct: Conor Caffrey (University of California San Diego); assay: TbrCatL enzymatic inhibition assay (cleavage of fluorogenic substrate Z-FR-AMC); assay type: biochemical; conditions: 0’ (pre-incubation time); sheet "Screening results";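 also: at 5 µM compound concentration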
Sequence (Q95PM0 entry or part of it): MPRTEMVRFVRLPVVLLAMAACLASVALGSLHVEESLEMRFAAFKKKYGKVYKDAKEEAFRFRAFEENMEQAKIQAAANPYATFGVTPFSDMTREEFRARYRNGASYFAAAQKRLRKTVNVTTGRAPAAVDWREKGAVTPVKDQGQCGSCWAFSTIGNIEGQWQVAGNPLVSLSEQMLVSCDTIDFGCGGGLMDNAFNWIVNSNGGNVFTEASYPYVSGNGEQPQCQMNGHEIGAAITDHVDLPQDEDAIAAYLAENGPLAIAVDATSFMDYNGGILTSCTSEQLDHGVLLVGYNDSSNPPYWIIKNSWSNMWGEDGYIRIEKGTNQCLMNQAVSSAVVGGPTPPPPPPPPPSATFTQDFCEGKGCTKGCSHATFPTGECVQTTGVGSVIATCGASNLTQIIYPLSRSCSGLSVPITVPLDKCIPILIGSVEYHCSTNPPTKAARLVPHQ
# reported TbrCatL 0’ Inhibition; entries follow
Value type: TbrCatL 0’ Inhibition (%)

molecule=O=C(C1CCN(c2nnc(-n3cccc3)s2)CC1)N1CCC(Cc2ccccc2)CC1 quantity_unit=% readout_number=2.2
molecule=Cc1ccc(-c2nc(CN(Cc3ccccn3)C(C)C)cs2)o1 quantity_unit=% readout_number=-6
molecule=Cc1cc(NC(=O)c2ccc(S(=O)(=O)N(Cc3ccccc3)C(C)C)cc2)no1 quantity_unit=% readout_number=-7
molecule=CCCc1ccc(S(=O)(=O)Nc2ccc(CN3CCN(CC4CC4)CC3)cc2)cc1 quantity_unit=% readout_number=-2.3
molecule=O=C(C1CCN(c2nnnn2-c2ccccc2)CC1)N1CCc2ccccc2C1 quantity_unit=% readout_number=-1.2
molecule=CN1CCC(NCc2cccc(-c3ccc(S(=O)(=O)NCc4ccccc4)cc3)c2)CC1 quantity_unit=% readout_number=-8
molecule=COc1cc(C2=NCCN2)ccc1-c1cn(-c2cccc(C3=NCCN3)c2)nn1 quantity_unit=% readout_number=14
molecule=c1ccc(Oc2ccc(-c3cc(N4CCOCC4)n[nH]3)cc2)cc1 quantity_unit=% readout_number=2
molecule=OCc1ccc(-c2cncc(Nc3cccc(Cl)c3)c2)cc1 quantity_unit=% readout_number=1.7
molecule=CC(C)n1nc(-c2cc3c(Cl)cccc3[nH]2)c2c(N)ncnc21 quantity_unit=% readout_number=-11
molecule=Cc1cc(C)c2cc(C(=O)NC3CCCCCCC3)[nH]c2c1 quantity_unit=% readout_number=-1.1
molecule=COc1ccc(-c2cnc3ccc(N4CCCC4)nn23)cc1OC quantity_unit=% readout_number=-7
molecule=COc1ccc(N(CCc2cccc(C)n2)C(=O)C2CCCCC2)cc1 quantity_unit=% readout_number=-13
molecule=NCC(=O)N1CCn2c(nc(-c3ccccc3)c2Nc2ccc3c(c2)OCO3)C1 quantity_unit=% readout_number=-1.7
molecule=Cc1cc(NC(=O)c2ccc(Oc3ccc(Cl)cc3O)o2)no1 quantity_unit=% readout_number=-6
molecule=Cc1cc(C)nc(-n2nc(C)cc2Nc2ccccc2)n1 quantity_unit=% readout_number=-32
molecule=COc1ccc(S(=O)(=O)Nc2ccc(CN3CCN(C(=O)c4cccc(C#N)c4)CC3)cc2)cc1 quantity_unit=% readout_number=0.7
molecule="O=C(NC1CCN(c2ccnc3ccccc23)C1)c1cccc(C(F)(F)F)c1 (stereo not shown)" quantity_unit=% readout_number=10
molecule=Cc1nc(-c2ccccn2)nc(NCCc2ccc(S(C)(=O)=O)cc2)c1Cl quantity_unit=% readout_number=-11
